# Tested on: HOP-62 NSCLC
# Assay comment: NCI tumour cell line growth inhibition, 48 h
Readout: TGI

Reference set (5 entries):
[[record]]
compound = "C[C@@H](NC1CCCC[C@@H]1O)c1ccccc1 (stereo partly specified)"
readout = "TGI"
assay_value = "> 100 µM"

[[record]]
compound = "Nc1ccc(Oc2ccc(C34CC5C6CC7(c8ccc(Oc9ccc(N)cc9)cc8)CC5C(C3)C(C7)C6C4)cc2)cc1"
readout = "TGI"
assay_value = "> 100 µM"

[[record]]
compound = "c1ccc(-c2cc3nc4ccccc4nc3cc(-c3ccccc3)[nH][nH]2)cc1"
readout = "TGI"
assay_value = "66.9 µM"

[[record]]
compound = "N#CCCC1(CCC#N)S(=O)(=O)OCCOS1(=O)=O"
readout = "TGI"
assay_value = "> 100 µM"

[[record]]
compound = "CC1CC(C)(O)C2C3(C)CCCC2(COC3=O)C12CCC1(CCOC1=O)O2 (stereo unspecified)"
readout = "TGI"
assay_value = "> 250 µM"


Please report TGI for every entry that follows.
1. COc1ccc2c(O)c1-c1c(OC)ccc(c1O)SSc1ccc(OC)c(c1O)-c1c(OC)ccc(c1O)SS2
2. CN1CCS(=O)(=O)NC(Cc2ccccc2)C(=O)N2CCCC2C1=O (stereo unspecified)

(A)
["> 100 µM", "> 100 µM"]

----------
# Tested on: MCF7 breast
# Assay comment: NCI tumour cell line growth inhibition, 48 h; in the data active = GI50 below about 0.43 µM; inactive = the rest
Classes to choose from: TRUE for active, FALSE for inactive

[[record]]
compound = "CCOC(=O)C1=C(C)NC2SC(=O)/C(=C\\c3cccc(Cl)c3)N2C1c1ccccc1 (configuration not stated)"
class_assignment = "FALSE"

[[record]]
compound = "c1cc[n+](Cc2c3ccccc3cc3c2ccc2ccccc23)cc1"
class_assignment = "FALSE"

[[record]]
compound = "COc1ccc2c(c1)OCC1c3cc(OC)c4ccccc4c3OC21 (configuration not stated)"
class_assignment = "FALSE"

[[record]]
compound = "COc1ccc(C2=C(c3ccccc3)C(=O)N3CCCC3C2)cc1 (configuration not stated)"
class_assignment = "FALSE"

[[record]]
compound = "CCOC(=O)c1c(-c2ccccc2)n2c(=O)cc(C)c3c(O)c(O)cc1c32"
class_assignment = "FALSE"


(Q) Look up the recorded call for Cc1ccc(NC(=S)NNC(=S)Nc2ccc(C)cc2)cc1 in this test.
(A) FALSE

(Q) Fill in: this test's call for CC[C@]12C=CCN3CC[C@@]4(c5ccc(OC)cc5N(C)[C@H]4[C@@](O)(C(=O)OC)[C@@H]1OC(=O)CCC(=O)O[C@H]1CC[C@H]4[C@@H]5CCC6=CC(=O)CC[C@@H]6[C@H]5CC[C@]14C)[C@@H]32 is ___
(A) FALSE

(Q) Dear colleague, could you share the recorded outcome for O=C1/C(=C/c2ccc(Cl)cc2)CN(Cc2cn(CCCNc3ccnc4cc(Cl)ccc34)nn2)C/C1=C\c1ccc(Cl)cc1 when you have a moment?
(A) TRUE

(Q) Please let me know the test result on file for CS(=O)(=O)Nc1cc(-c2ccc3ncc(C#N)c(Nc4ccc(F)c(Cl)c4)c3c2)cnc1Cl .
(A) TRUE

(Q) What is the recorded call for this compound in the test? C=C(C)[C@@H]1CC[C@]2(C(=O)O)CC[C@]3(C)[C@H](CC[C@@H]4[C@@]5(C)C/C(=C/c6ccco6)C(=O)C(C)(C)[C@@H]5CC[C@]43C)[C@@H]12
(A) FALSE

(Q) Status in this test for O=C(Cc1cc(O)ccc1O)NO ?
(A) FALSE

(Q) Hi team, can someone confirm the assay call for NS(=O)(=O)c1ccc(N=Nc2c(O)[nH]c3ccc(C(=O)NCCCn4ccnc4)cc23)cc1 ?
(A) FALSE

(Q) // outcome(item) with item = CCN1CCN(Cc2ccc(NC(=O)Nc3nc(-c4cc(OC)c(OC)c(OC)c4)cs3)cc2C(F)(F)F)CC1
(A) FALSE

(Q) Called result for O=C(/C=C(/C=C/c1cccc2[nH]ccc12)OB(F)F)/C=C/c1cccc2[nH]ccc12
(A) FALSE

(Q) Tell me the assay call for COc1ccc(-c2nc3sccn3c2-c2ccnc(NCCNS(=O)(=O)c3ccc(C(F)(F)F)cc3)n2)cc1 please.
(A) FALSE

(Q) What classification did COc1ccc2nc3cc([N+](=O)[O-])ccc3c(NCCO)c2c1 end up with in this test?
(A) FALSE

(Q) Dear colleague, could you share the recorded outcome for COC(=O)CN1Cc2cc(C)cc(c2O)CN(CC(=O)OC)Cc2cc(C)cc(c2O)CN(CC(=O)OC)Cc2cc(C)cc(c2O)CN(CC(=O)OC)Cc2cc(C)cc(c2O)C1 when you have a moment?
(A) FALSE

Hey, just so you know, these numbers are from PubChem BioAssay (NCI).
